The reported measurements were obtained from PubChem BioAssay AID431.

Assay: viability loss of HPDE-C7K cells – cell-based, fluorescence, HTS, primary screen (AID 431);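 also: 0% = DMSO solvent wells and 100% = doxorubicin-treated wells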
Details: HPDE-C7K KRASV12 cells, Alamar Blue viability, 48 h; at 10 µM
Hit rate of the full screen: of about 63,000 compounds, about 1,100 (1.7%) were called active.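 The calls were made as follows: active = compounds whose percent cytotoxicity in the single-dose primary screen, scaled between solvent and toxic-drug controls, exceeds 50; inactive = the rest.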 The full list was thinned out, with actives kept by preference. Results with a measured potency or affinity are listed apart.
// classify into y (active), n (inactive)

Called result for CCN(CC)C(=O)CSC1=C(C#N)C(c2ccco2)C(C(=O)OCCOC)=C(C)N1 (stereo not drawn)
n

Could you check what this test reported for `COc1ccccc1N1CCN(CC(=O)Nc2c(C)n[nH]c2C)CC1` ?
n

Fill in: this test's call for CC1CC(C)CN(Cc2nc(N)nc(Nc3ccc4ccccc4c3)n2)C1 (stereo not drawn) is ___
y

State the result this test recorded for `CCN(CC)S(=O)(=O)c1cccc(-c2nnc(SCC(=O)NC)n2CCc2ccccc2)c1` .
n

// outcome(item) with item = `Cc1cccc(N(CC(=O)NC2CCCCC2)C(=O)CCC(=O)Nc2cc(C)ccn2)c1`
n

For `C=CCn1c(SCc2ccccc2C#N)nnc1-c1cc(Br)ccc1O` , which call appears in the assay record?
n

Called result for `Cc1ccc(Nc2nc(N)nc(CN3CCN(c4ccccc4)CC3)n2)cc1Cl`
y

Look up the recorded call for `N#Cc1c(NC(=O)CCN2C(=O)c3ccccc3C2=O)oc(-c2ccccc2)c1-c1ccccc1` in this test.
n

Please share the test call associated with CCOC(=O)C1=C(C)NC2=C(C(=O)CCC2)C1c1cc(OC)ccc1OC (stereo not drawn) .
n

Just curious, what result did `CCN1CCN(Cc2nc(N)nc(Nc3ccc(C)c(C)c3)n2)CC1` get here?
n

Please indicate how the test categorized `Cc1ccc(Nc2nc(N)nc(CN3CCN(C)CC3)n2)cc1C` .
n

I'd appreciate the recorded outcome for `COc1ccc(S(=O)(=O)NC2CCCC2)cc1Br` from this test.
n

# fetch the recorded call for c1ccc2c(c1)C(=NCC1CCCO1)NC2=NCC1CCCO1 (stereo not drawn) here
n

Kindly provide the recorded test outcome for the following compound: CC(=O)C1=C(C)NC(SCC(=O)c2ccc(Cl)cc2Cl)=C(C#N)C1c1ccco1 (stereo not drawn)
n

Outcome logged for `O=C(O)Cc1nc2nc3c(c(=O)n2[nH]1)CCCC3` in this assay:
n

Given `CCN1CCN(C2CCN(C(C)=O)CC2)CC1` , state the outcome it received in this test.
n

Please let me know the test result on file for `Cc1cccc(Nc2nc(N)nc(CN3CCN(c4ccccc4)CC3)n2)c1` .
n

I'd appreciate the recorded outcome for O=C(C1CCCN(S(=O)(=O)c2ccc(Br)s2)C1)N1CCCCCC1 (stereo not drawn) from this test.
n

Could you please tell me the result logged for CCC(c1nnnn1C(C)(C)C)N1CCN(c2cc(Cl)ccc2C)CC1 (stereo not drawn) in this assay?
n

Which outcome did this test record for the compound `COc1ccc(-c2nnc3n2-c2ccccc2SC3)cc1OC` ?
n

Could you check what this test reported for CCOC(=O)C1=C(C)Nc2nnnn2C1c1cccc(OC)c1OC (stereo not drawn) ?
n

Tell me the assay call for Cc1nc2sc(C(c3cccc(F)c3)N3CCC(O)CC3)c(O)n2n1 (stereo not drawn) please.
n

GET /call?item= CCOc1ccc(C(C)(N)C(=O)O)cc1 (stereo not drawn) returns the recorded outcome of this test.
n

###

Assay: viability loss of HPDE-C7K cells – cell-based, fluorescence, HTS, primary screen (AID 431);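 also: 0% = DMSO solvent wells and 100% = doxorubicin-treated wells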
Settings: HPDE-C7K KRASV12 cells, Alamar Blue viability, 48 h; at 10 µM
Hit rate of the full screen: of about 63,000 compounds, about 1,100 (1.7%) were called active.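 How the source made its calls: active means compounds whose percent cytotoxicity in the single-dose primary screen, scaled between solvent and toxic-drug controls, exceeds 50; inactive means the rest.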 The sample holds actives, similar compounds and a random draw of the others, so the mix is not that of the screen. Potency and affinity values are given separately.
# output must be one of active, inactive

Lab log entry: `CCC(=O)Nc1c(C#N)c2nc3ccccc3nc2n1-c1ccccc1C` — outcome as called in the assay?
inactive

So what was the verdict on `CCCCn1c(NC(=O)CC)c(C#N)c2nc3ccccc3nc21` in this test?
inactive

Record request — test call for `CCCCCn1c(N)c(C#N)c2nc3ccccc3nc21`
inactive

Called result for `CCCCn1c(NC(C)=O)c(C#N)c2nc3ccccc3nc21`
inactive

Per the records of this test, what outcome belongs to `CCCCn1c(NC(=O)c2ccc(F)cc2)c(C#N)c2nc3ccccc3nc21` ?
active

Which result was noted for this compound in the test: `CCCCn1c(NC(=O)c2ccccc2Cl)c(C#N)c2nc3ccccc3nc21`
inactive

###

For each of the compounds below, state its cytotoxicity.
Assay: viability loss of HPDE-C7K cells – cell-based, fluorescence, HTS, primary screen (AID 431);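 also: 0% = DMSO solvent wells and 100% = doxorubicin-treated wells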
Conditions: HPDE-C7K KRASV12 cells, Alamar Blue viability, 48 h; at 10 µM; hits give high values
In all, about 63,000 compounds went through this assay and about 1,100 (1.7%) were called active. Many of the other results were omitted from the sample, so actives are more common in it than they were. Entries with a potency or affinity are not part of this list.
Express it in %; write the number only.

cytotoxicity for `O=S(=O)(Nc1ccc(-c2nc3ccccc3o2)cc1)c1ccccc1` ?
52

Value lookup for cytotoxicity; key = COc1ccc(C2c3c(-c4ccccc4O)n[nH]c3C(=O)N2CCc2ccc(OC)c(OC)c2)cc1 (configuration not stated)
51.4

What measured cytotoxicity goes with COc1ccc(CCN2C(=O)c3[nH]nc(-c4ccccc4O)c3C2c2cccc(O)c2)cc1OC (configuration not stated) ?
63.4

# input compound: `COc1cc(OC)cc(C(=O)Nc2ccc(-c3nc4ccccc4o3)cc2)c1` ; wanted: its cytotoxicity
73.9

Give its cytotoxicity value. Item: `COc1ccc(OC)c(NC(=O)CSc2nnc(Cn3c(=O)sc4ccccc43)n2C)c1`
4.6

Name the recorded cytotoxicity for `N#Cc1nc(-c2ccc(F)cc2)oc1N1CCCC1` .
3.4

For COc1ccc(C2c3c(-c4cc(Cl)c(C)cc4O)n[nH]c3C(=O)N2Cc2cccnc2)cc1OC (configuration not stated) , what is its reported cytotoxicity?
14.2

Name the recorded cytotoxicity for CCC(C)(C)n1nnnc1C(c1ccc(C)cc1)N1CCN(Cc2cccnc2)CC1 (configuration not stated) .
-32

cytotoxicity lookup needed for `CCc1nc(SCC(=O)c2ccc(C)c(C)c2)n[nH]1` , thanks.
-2.5

Reported cytotoxicity for `Cc1ccc(-n2c(N)c(-c3nc4ccccc4n3C)sc2=S)cc1` : what is it?
9.5

// query cytotoxicity value for entry `O=C(c1ccc(F)cc1)c1ccc(N2CCCC2)cc1`
-11

Tell me the measured cytotoxicity of `COc1cc(C(=O)Nc2cccc(-c3nc4cc(C)ccc4o3)c2)cc(OC)c1OC` , please.
43.8

Consider the compound `O=C(Cc1coc2ccc3ccccc3c12)N1CCN(c2ncccn2)CC1` and give its measured cytotoxicity.
0.6

Which value of cytotoxicity has been reported for `N#CCCCSc1nnc(-c2ccc(Cl)cc2)n1-c1ccccc1` in the records?
-16.4

What does the data say about its cytotoxicity? Entry: `O=C(Nc1ccc2ccccc2c1)c1cccnc1`
0.5

Endpoint output: cytotoxicity of COCCCN1C(=O)c2[nH]nc(-c3ccccc3O)c2C1c1ccc(Cl)cc1 (configuration not stated) . Value?
62.9

Consider the compound `C=CCn1c(N)nc2ccccc21` and give its measured cytotoxicity.
-9.7

What does the record list as cytotoxicity for Cc1cc(O)c(-c2n[nH]c3c2C(c2cccc(O)c2)N(Cc2cccnc2)C3=O)cc1Cl (configuration not stated) ?
9.3

Need cytotoxicity, item `COc1ccc(-n2c(SCCC#N)nnc2-c2cc(Cl)ccc2OC)cc1Cl`
54.3

Which measured cytotoxicity value corresponds to `COc1cc(C(=O)NCc2ccc(-c3nc4ccccc4o3)cc2)cc(OC)c1OC` ?
2.5

Which cytotoxicity value is on record for COCCCN1C(=O)c2[nH]nc(-c3ccccc3O)c2C1c1cccc(Cl)c1 (configuration not stated) ?
18.6

Item under review: `COc1cc(NC(=O)c2ccccc2)c(OC)cc1NC(C)=O` . Reported cytotoxicity?
-2.1

###

Experiment: viability loss of HPDE-C7K cells – cell-based, fluorescence, HTS, primary screen (AID 431);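 also: 0% = DMSO solvent wells and 100% = doxorubicin-treated wells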
Details: HPDE-C7K KRASV12 cells, Alamar Blue viability, 48 h; at 10 µM
Out of some 63,000 compounds screened, about 1,100 (1.7%) were called active.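 The calls were made as follows: active = compounds whose percent cytotoxicity in the single-dose primary screen, scaled between solvent and toxic-drug controls, exceeds 50; inactive = the rest.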 Many of the other results were omitted from the sample, so actives are more common in it than they were. Measured potencies and affinities stand elsewhere.
Please state which outcome applies, choosing from YES = active, NO = inactive

Per the assay record, what outcome was assigned to CCOc1ccccc1NC(=O)C1CCCN(S(=O)(=O)c2cccc3cccnc23)C1 (stereo not drawn) ?
NO

Hello, I am checking results. What call was entered for `COC(=O)c1c(NC(=O)c2ccoc2C)sc2c1CCC2` ?
NO

Which result was noted for this molecule in the test: `Cc1cc(NCCCN)nc(-c2ccccc2O)n1`
NO

Record request — test call for `CCOc1ccc(-c2c(C#N)c(N)nc3c2c(=O)n(C)c(=O)n3C)cc1OC`
NO

Called result for `Oc1ccc(CNc2ccccc2)c2cccnc12`
NO

State the result this test recorded for `COc1cc(SC)ccc1C(=O)Nc1ccccc1C#N` .
NO

# fetch the recorded call for `COc1ccc(-n2nnc3c(SCc4ccccc4)ncnc32)cc1` here
NO

Test call for this molecule, please: `O=C(Nc1sc2c(c1C(=O)O)CCCC2)c1cccs1`
NO

How was `CCCCOc1cc(C)nc(NCc2ccccc2)n1` classified in this test?
NO

Entry `COc1ccc2nc3sc(C(=O)NCc4cccs4)c(N)c3cc2c1` : call = ?
NO

Just curious, what result did CC(=O)c1cccc(NC(=O)NC(C)c2ccncc2)c1 (stereo not drawn) get here?
NO

Given `O=c1cc(-c2ccccc2)[nH]c2nc3ccccc3n12` , state the outcome it received in this test.
NO

For this molecule, state the assay outcome: `Cc1cc(C)nc(NCCCc2ccccc2)n1`
NO

Give the logged outcome of this assay for the following molecule: `Cc1ccc2oc(-c3ccc(NC(=O)c4cccnc4)cc3)nc2c1`
YES

Please share the test call associated with Cc1cccc(C(=O)NC2CC3CCCC(C2)N3C(=O)NC2CCCCC2)c1 (stereo not drawn) .
NO

Give the logged outcome of this assay for the following molecule: `Cn1nnnc1SCC(=O)N1CCN(c2cccc(Cl)c2)CC1`
NO

GET /call?item= `O=C(Nc1ccc2oc(=O)ccc2c1)c1cccnc1` returns the recorded outcome of this test.
NO

Per the records of this test, what outcome belongs to `C=C(C)c1ccc(C(C)(C)NC(=O)NCc2ccco2)cc1` ?
NO

Write down the call the test reported for this molecule. Item: `CCOC(=O)c1[nH]c2ccc(C)cc2c1N=CN(CC)CC`
NO

Could you kindly confirm the outcome this assay logged for O=C1CC(N2CCN(c3ccc(S(=O)(=O)N4CCCC4)cc3)CC2)C(=O)N1c1ccc(F)cc1 (stereo not drawn) ?
NO

So what was the verdict on `O=C(c1ccc(COc2ccc(Cl)cc2)o1)N1CCN(Cc2ccc3c(c2)OCO3)CC1` in this test?
YES

Name the outcome recorded for `O=C(c1ccc(Br)o1)N1CCN(Cc2ccc3c(c2)OCO3)CC1` in the assay.
NO

Test call for this molecule, please: `Nc1nnc(N2CCCCC2)s1`
NO

Which outcome was assigned to `Cc1cc(Nc2ccccc2)nc(-c2ccccc2O)n1` in this test?
NO

Lab log entry: COC(=O)CSC1=C(C#N)C(c2ccccc2)CC(=O)N1 (stereo not drawn) — outcome as called in the assay?
NO

State the result this test recorded for `COc1ccc(CC(=O)N2CCN(C(=O)Cc3ccc(OC)cc3)CC2)cc1` .
NO

Short answer needed: outcome of this test for `CN(CCc1ccccn1)C(=O)CCNC(=O)Cn1cnc2ccccc2c1=O` ?
NO

Hi, do you know how `CCS(=O)(=O)N1CCN(c2ccccc2F)CC1` came out in this test?
NO

How did this test come out for `COC(=O)c1c(NC(C)=O)sc2c1CCCC2` ?
NO

Hello, I am checking results. What call was entered for `Oc1ccc(CN2CCN(Cc3ccccc3)CC2)c2cccnc12` ?
NO

Please state the recorded outcome for this molecule: `O=C(O)c1ccccc1C(=O)c1cccs1`
NO

# lookup: test call for CCc1c(C)nc2ncnn2c1N1CCCC(C(=O)NCCc2ccccc2)C1 (stereo not drawn)
NO

What was the test verdict on CCSC1=C(C#N)C(c2ccccc2OC)CC(=O)N1 (stereo not drawn) ?
NO

Record lookup: outcome of this test for `COC(=O)c1c(NC(=O)c2ccc(Br)s2)sc2c1CCC2` ?
YES

Each molecule tested received a call. Report the one for CCOC(=O)CSC1=C(C#N)C(c2ccc3c(c2)OCO3)CC(=O)N1 (stereo not drawn) .
NO

I'd appreciate the recorded outcome for `CC(=NC1CCCC1)c1c(C)[nH]n(-c2nc3ccccc3s2)c1=O` from this test.
NO

What outcome does the record of this test show for `COc1ccc(-c2cc(=O)n(-c3nc4ccccc4[nH]3)[nH]2)cc1` ?
NO

Look up the recorded call for `Nc1ccc(CCS(N)(=O)=O)cc1` in this test.
NO

// return assay outcome for `Cc1ccc(-n2nnnc2SCC(=O)Nc2c(C)n(C)n(-c3ccccc3)c2=O)cc1`
NO

Outcome? `CCCCNc1cc(C)nc(NCc2ccccc2)n1`
YES

Record request — test call for CCOc1ccc(CN2C(=O)CCC2(C)C(=O)NCc2cccnc2)cc1 (stereo not drawn)
NO

Short answer needed: outcome of this test for `NC(=O)c1c(NC(=O)c2cccs2)sc2c1CCCCCC2` ?
YES

In this assay, the call recorded for `Oc1ccc(CNc2ccccc2F)c2cccnc12` was what?
NO

Tell me the assay call for `Cc1ccc(-c2n[nH]c(=O)c3ccccc23)cc1N` please.
NO

Short answer needed: outcome of this test for `CCOC(=O)C1CCN(Cc2ccc(O)c3ncccc23)CC1` ?
NO

I would be grateful if you could indicate the recorded call for `O=C(Nc1cccnc1)c1ccc(Cl)c(S(=O)(=O)N2CCCCCC2)c1` .
NO

Please state the recorded outcome for this molecule: CCC1Oc2ccc(C)cc2N(CC(=O)NCCC2=CCCCC2)C1=O (stereo not drawn)
NO

Short answer needed: outcome of this test for `CCOC(=O)c1[nH]c2ccc(C)cc2c1N=C(C)N(C)C` ?
YES
